Value source: patent US6509163B1

Biological target: P2X7 receptor (Rattus norvegicus)
Construct: yielding a construct that encoded the entire P2X7 protein
Sequence (Q64663 whole entry): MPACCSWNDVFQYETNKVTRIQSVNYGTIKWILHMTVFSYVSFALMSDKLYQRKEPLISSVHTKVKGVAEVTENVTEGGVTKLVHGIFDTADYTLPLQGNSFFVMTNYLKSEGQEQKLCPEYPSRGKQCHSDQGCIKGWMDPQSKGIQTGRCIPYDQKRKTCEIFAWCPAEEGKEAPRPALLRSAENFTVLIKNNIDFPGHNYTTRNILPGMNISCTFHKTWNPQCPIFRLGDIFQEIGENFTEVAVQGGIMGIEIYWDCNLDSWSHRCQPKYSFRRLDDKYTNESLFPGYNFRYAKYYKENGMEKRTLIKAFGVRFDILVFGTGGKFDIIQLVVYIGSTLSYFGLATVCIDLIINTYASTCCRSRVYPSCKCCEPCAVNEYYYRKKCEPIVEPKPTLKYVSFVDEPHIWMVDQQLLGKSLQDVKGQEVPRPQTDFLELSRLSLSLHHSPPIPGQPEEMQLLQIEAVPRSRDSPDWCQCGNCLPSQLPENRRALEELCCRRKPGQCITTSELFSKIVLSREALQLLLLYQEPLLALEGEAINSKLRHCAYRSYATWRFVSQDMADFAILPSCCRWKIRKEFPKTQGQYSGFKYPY
Test: Whole-cell recordings of agonist-evoked currents in HEK293 cells transfected with rat P2X7 cDNA (Example 2)
Conditions: four HEK cells; read-out: half-maximal inhibition of currents evoked by 30 μM BzATP
Excerpt: Whole-cell recordings were obtained at room temperature from HEK293 cells transiently or stably transfected with P2X7 cDNA, from HEK293 cells transiently transfected with P2X7ΔC cDNA, and from J774A.1 cells (American Type Culture Collection, Rockville, Md.). Agonist were applied for periods of 1 to 3 s by a fast-flow U-tube delivery system (Fenwick et al, J. Physiol. (London) 331:577 (1982)). […]
measured_quantity: IC50 (µM)
Answers are plain numbers, in µM.

### Prompt Field request: IC50 | item: Cc1nc(N=Nc2ccc(S(=O)(=O)O)cc2S(=O)(=O)O)c(COP(=O)(O)O)c(C=O)c1O [PPADS]
### Response 45
